- Tested on: Pseudomonas aeruginosa ATCC 27853
- Measurement protocol: ≥ marks a high value that may be exact or a test limit, other limits are often not marked, values filed in µg/mL are converted to µM
Reported endpoint: MIC

Exercise: What MIC value was documented for this molecule, CC[C@H](C)[C@H](NC(=O)[C@H](C)NC(=O)[C@H](CCCCN)NC(=O)[C@@H](N)CCC(N)=O)C(=O)N[C@@H](CCCN=C(N)N)C(=O)N[C@H](C(=O)N[C@@H](CCCN=C(N)N)C(=O)N[C@@H](CC(C)C)C(=O)N[C@@H](CO)C(=O)N[C@@H](C)C(=O)O)C(C)C [QKAIRVRLSA] ?
Solution: 7.01 µM

Exercise: What about this molecule? CC[C@H](C)[C@H](NC(=O)[C@H](CC(=O)O)NC(=O)[C@H](CC(=O)O)NC(=O)[C@H](CC(N)=O)NC(=O)CNC(=O)[C@H](CO)NC(=O)[C@H](Cc1ccccc1)NC(=O)[C@H](CC(=O)O)NC(=O)[C@@H](NC(=O)CNC(=O)[C@@H](N)C(C)C)[C@@H](C)O)C(=O)N[C@@H](CO)C(=O)N[C@@H](CC(=O)O)C(=O)N[C@H](C(=O)N[C@@H](CCC(N)=O)C(=O)N[C@@H](CCCCN)C(=O)O)C(C)C [VGTDFSGNDDISDVQK]
Solution: 1.15 µM

Exercise: What do we get for CC(C)C[C@H](NC(=O)[C@H](CO)NC(=O)[C@H](CCCN=C(N)N)NC(=O)[C@H](CCCCN)NC(=O)[C@@H](NC(=O)[C@@H](NC(=O)CNC(=O)[C@H](CCCN=C(N)N)NC(=O)[C@H](Cc1cnc[nH]1)NC(=O)[C@H](Cc1c[nH]c2ccccc12)NC(=O)[C@H](Cc1ccccc1)NC(=O)[C@H](Cc1cnc[nH]1)NC(=O)[C@H](Cc1ccc(O)cc1)NC(=O)[C@@H](N)Cc1ccc(O)cc1)C(C)C)[C@@H](C)O)C(=O)O [YYHFWHRGVTKRSL] ?
Solution: 60 µM

Exercise: Query CC[C@H](C)[C@H](NC(=O)[C@H](Cc1ccccc1)NC(=O)[C@H](CCCCN)NC(=O)[C@H](CC(C)C)NC(=O)[C@H](CC(C)C)NC(=O)CN)C(=O)N[C@@H](CCCCN)C(=O)N[C@@H](CCCCN)C(=O)N[C@@H](CC(C)C)C(=O)N[C@@H](CC(C)C)C(N)=O [GLLKFIKKLL] next
Solution: 28.4 µM

Exercise: One more molecule: CC[C@H](C)[C@H](NC(=O)[C@H](CC(C)C)NC(=O)[C@@H](NC(=O)[C@@H](N)CC(=O)O)[C@@H](C)CC)C(=O)N[C@H](C(=O)N[C@H](C(=O)NCC(=O)NCC(=O)NCC(=O)N[C@@H](CO)C(=O)NCC(=O)N[C@@H](CCCCN)C(=O)N[C@@H](CCC(=O)O)C(=O)N[C@@H](CCCN=C(N)N)C(=O)N[C@@H](CCCCN)C(=O)N[C@@H](CCCCN)C(=O)N[C@@H](CCCN=C(N)N)C(=O)N[C@@H](CCCN=C(N)N)C(=O)N[C@@H](CCCN=C(N)N)C(N)=O)C(C)C)[C@@H](C)CC [DILIIVGGGSGKERKKRRR]
Solution: > 64 µM

Exercise: Another molecule: CC[C@H](C)[C@H](NC(=O)[C@H](CCCN=C(N)N)NC(=O)[C@H](CO)NC(=O)[C@H](CC(C)C)NC(=O)[C@H](Cc1ccccc1)NC(=O)[C@H](CO)NC(=O)[C@@H](N)Cc1ccccc1)C(=O)N[C@@H](Cc1ccccc1)C(N)=O [FSFLSRIF]
Solution: > 100 µM

Exercise: Can you handle C[C@H](N)C(=O)N[C@@H](CCCN=C(N)N)C(=O)N[C@@H](CCCN=C(N)N)C(=O)N[C@@H](C)C(=O)N[C@@H](CCCN=C(N)N)C(=O)N[C@@H](CCCN=C(N)N)C(=O)N[C@@H](CCCN=C(N)N)C(=O)N[C@@H](Cc1c[nH]c2ccccc12)C(=O)N[C@@H](CCCN=C(N)N)C(=O)N[C@@H](CCCN=C(N)N)C(=O)N[C@@H](CCCN=C(N)N)C(=O)N[C@@H](C)C(=O)N[C@@H](CCCN=C(N)N)C(=O)N[C@@H](CCCN=C(N)N)C(=O)N[C@@H](C)C(N)=O [ARRARRRWRRRARRA] next?
Solution: 62.4 µM
